Read-out: CYP2E1 (gene 1571)
Test: LTEA_HepaRG_CYP2E1: Life Technologies and Expression Analysis (LTEA) Assay for CYP2E1 using HepaRG (AID 2283485)
Conditions: mRNA level, 48 h; actives raise or lower the signal
Activity calls are given as the source filed them. The calls were made as follows: active = hit-call score of the fitted dose curve at least 0.9, where 1 is the maximum; inactive = score below 0.9.
Log the outcome using a class from active, inactive

Use these answered entries as a reference point.
MOLECULE	ASSIGNED_CLASS
OCC(CO)(CBr)CBr	inactive
CCCCCCCCCCCCCCC	active
CC(=O)Nc1ccc(O)cc1	inactive
CCCCC(CC)C(=O)O (centres undefined)	inactive
CCC(C)c1ccccc1O (centres undefined)	inactive
CCCCCCCCCCCCOS(=O)(=O)O	active

(Q) Test call, this molecule: CCCCC=O
(A) inactive

(Q) Test call, this molecule: O=C(CCCN1CCC(O)(c2ccc(Cl)cc2)CC1)c1ccc(F)cc1
(A) active

(Q) Test call, this molecule: N=C(N)c1ccc(OCCCCCOc2ccc(C(=N)N)cc2)cc1
(A) active

###

Read-out: Monokine induced gamma interferon (MIG), CXCL9 (gene 4283)
Assay: BSK_BE3C_MIG: BioMAP Diversity Plus: BE3C Assay for Monokine induced gamma interferon (MIG) Biomarker Activity (AID 2283035);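 as to outcome: MIG protein measured by ELISA in BE3C cultures after 24 h of dosing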
Details: primary human bronchial epithelial cells; actives raise or lower the signal
Calls of active or inactive are those of the source. The calls were made as follows: active = hit-call score of the fitted dose curve at least 0.9, where 1 is the maximum; inactive = score below 0.9.
Log the outcome using a class from t = active, f = inactive

MOLECULE	ASSIGNED_CLASS
COC1=CC(=O)C[C@@H](C)[C@]12Oc1c(Cl)c(OC)cc(OC)c1C2=O	f
CCCCCCCCCCCCOS(=O)(=O)O	t
CCCCC(CC)C(=O)O (centres undefined)	f
O=C(O)CCC(F)(F)C(F)(F)C(F)(F)C(F)(F)C(F)(F)C(F)(F)F	f
CN(C)c1ccc(C(=C2C=CC(=[N+](C)C)C=C2)c2ccccc2)cc1	t

(Q) Test call, this molecule: Cc1[nH]nc2c1N=C(c1ccccc1Cl)c1cc([N+](=O)[O-])ccc1N2
(A) t

(Q) Test call, this molecule: COCN(COC)c1nc(N(COC)COC)nc(N(COC)COC)n1
(A) f

(Q) Test call, this molecule: CCCCc1oc2ccccc2c1C(=O)c1cc(I)c(OCCN(CC)CC)c(I)c1
(A) t

(Q) Test call, this molecule: CCC(C)c1ccccc1O (centres undefined)
(A) f

###

Test: ACEA_AR_agonist_AUC_viability: ACEA Biosciences xCELLigence Real-Time Cell Analysis on Androgen Receptor Agonism for Viability (AID 2283775)
Records with an inconclusive call do not appear. Active and inactive are the calls of the source. The calls were made as follows: active = hit-call score of the fitted dose curve at least 0.9, where 1 is the maximum; inconclusive = response in the unintended direction; inactive = score below 0.9.
Log the outcome using a class from 1 (yes) (active), 0 (no) (inactive)

Use these answered entries as a reference point.
COMPOUND	ASSIGNED_CLASS
Cc1ccc(S(=O)(=O)O)cc1	0 (no)
CCCCCCCCCCCC	0 (no)
NC(=NCCCCCCN=C(N)/N=C(\N)Nc1ccc(Cl)cc1)/N=C(\N)Nc1ccc(Cl)cc1	1 (yes)

For the next question, use this compound.
(Q) Test call, this compound: CCCCc1ccc2ccccc2c1S(=O)(=O)O
(A) 1 (yes)

###

Assay: ATG_TA_CIS: Attagene CIS-FACTORIAL HepG2 Assay for human TA Basal Promoter (AID 2282964)
Conditions: HepG2 Attagene CIS-factorial TA basal promoter reporter; actives raise or lower the signal
Calls of active or inactive are those of the source. Rule for the calls: active = hit-call score of the fitted dose curve at least 0.9, where 1 is the maximum; inactive = score below 0.9.
Log the outcome using a class from active, inactive

Use these answered entries as a reference point.
COMPOUND	ASSIGNED_CLASS
CCCCCCOC(=O)c1ccc(O)cc1	inactive
CCC(C)c1ccccc1O (centres undefined)	inactive
COCN(COC)c1nc(N(COC)COC)nc(N(COC)COC)n1	inactive

(Q) Test call, this compound: CC1=NN(c2ccccc2)C(=O)C1
(A) inactive

(Q) Test call, this compound: CCN(CC)CC
(A) inactive

(Q) Test call, this compound: Oc1ccc(Cc2ccccc2O)cc1
(A) inactive

(Q) Test call, this compound: CCCCCCCCCCCCCCCCCC[N+](C)(C)Cc1ccccc1
(A) inactive

(Q) Test call, this compound: CCCCCCCC(OC)OC
(A) inactive

(Q) Test call, this compound: COc1ccc(C#N)cc1
(A) inactive

(Q) Test call, this compound: CCOC(=O)CN[C@@H](C(=O)N1CC[C@H]1C(=O)NCc1ccc(/C(N)=N/O)cc1)C1CCCCC1
(A) inactive

(Q) Test call, this compound: CCc1cccc(CC)c1N(COC)C(=O)CS(=O)(=O)O
(A) inactive

(Q) Test call, this compound: CCCCC(CC)C(=O)OCCOCCOCCOCCOC(=O)C(CC)CCCC (centres undefined)
(A) inactive

(Q) Test call, this compound: OCC1CCC(CO)CC1 (centres undefined)
(A) inactive

(Q) Test call, this compound: O=C1c2ccc(O)c(O)c2C(=O)c2c(O)ccc(O)c21
(A) inactive

(Q) Test call, this compound: NCc1cccc(CN)c1
(A) inactive
